# Tested on: XF498
# Method summary: NCI tumour cell line growth inhibition, 48 h
The source made the active and inactive calls. Rule as the data show it: active = GI50 up to about 1.1 µM and inactive = higher.
Parameter: GI50

Recorded results for 4 molecules are shown here.
                                   molecule             measured
0  COc1cc2c(cc1Oc1ccc(OC)c3c1CC1c4c(cc(OC)c(OC)c4-3)CCN1C)CC1c3c(cc(OC)c(OC)c3-2)CCN1C (stereo not given)   1.98 µM (inactive)
1               COCCOCOc1ccc(OCc2ccccc2)cc1  > 100 µM (inactive)
2  Cc1cc(NS(=O)(=O)c2ccc(NC(=O)c3cccc4c(Nc5ccc(S(N)(=O)=O)cc5)c5ccccc5nc34)cc2)no1   59.7 µM (inactive)
3   Cc1cc2c(=O)cc(-c3ccncc3)oc2c(C(=O)O)c1C  > 100 µM (inactive)

Inquiry: Which GI50 value is on record for C[C@@H](CO)OCOCc1ccccc1 ?
Reply text: > 100 µM (inactive)

====

# Tested on: UACC-62
# Method summary: NCI tumour cell line growth inhibition, 48 h
Activity calls are given as the source filed them. No stated cut-off is given here; in the data, active = GI50 up to about 1.1 µM and inactive = higher.
Parameter: GI50

Use these answered entries as a reference point.
In [3]: df
Out[3]:
                                   compound  target_under_test             measured
0  C[C@]12CC[C@H]3[C@@H](CC=C4C[C@@H](O)CC[C@@]43C)[C@@H]1C/C(=C/c1ccccc1)[C@@H]2O            UACC-62   17.8 µM (inactive)
1  C[C@@H]1CC[C@]2(C(=O)O)CC[C@]3(C)C(=CC[C@@H]4[C@@]5(C)CC[C@H](O)C(C)(C)[C@@H]5CC[C@]43C)[C@@H]2[C@]1(C)O            UACC-62   3.49 µM (inactive)
2                           S=C(S)NCNC(=S)S            UACC-62  > 100 µM (inactive)
3  COc1ccc(-c2nc(-c3cnccn3)n(C3OC(CO)C(O)C(O)C3O)n2)cc1 (stereo not drawn)            UACC-62  > 100 µM (inactive)

Inquiry: Entry CN1CCN(CCn2c3c4ccccc4ccc3c3oc(=O)c4ccccc4c32)CC1 has what GI50?
Reply text: 3.56 µM (inactive)

Inquiry: Need GI50 of CCC1C(c2cc(OC)c(OC)c(OC)c2)c2cc3c(cc2OC1N1CCOCC1)OCO3 (stereo not drawn) , thanks.
Reply text: 6.08 µM (inactive)

Inquiry: Query (compound): COc1cccc(NC(=O)c2c(SC)c(C#N)c(=O)n(N)c2N)c1 ; field requested: GI50
Reply text: 61.5 µM (inactive)

Inquiry: // returns reported GI50 for input Cc1ccc(NC(=O)CC(=O)n2nc(-c3ccccc3)c(/N=N/c3ccc(Cl)cc3)c2-c2ccccc2)cc1
Reply text: > 100 µM (inactive)

====

# Tested on: LXFL 529
# Method summary: NCI tumour cell line growth inhibition, 48 h
Activity calls are given as the source filed them. Cut-off read from the data, not from the text of the source: active = GI50 up to about 1.1 µM and inactive = higher.
Return exactly one item of class 1 = active, class 0 = inactive

Inquiry: Short answer needed: outcome of this test for COC(=O)C(/C(=N/NC(N)=O)C(=O)Nc1c(C)cccc1C(C)(C)C)c1nc2ccc(Cl)cc2nc1O (configuration not stated) ?
Reply text: class 0

Origin of measurements: ChEMBL document CHEMBL1201862
